Please go through the items and note down their log10 of IC50.
ASSAY_TARGET: human P2X3 receptor (Homo sapiens (Human), UniProt P56373)
Sequence (P56373 whole entry): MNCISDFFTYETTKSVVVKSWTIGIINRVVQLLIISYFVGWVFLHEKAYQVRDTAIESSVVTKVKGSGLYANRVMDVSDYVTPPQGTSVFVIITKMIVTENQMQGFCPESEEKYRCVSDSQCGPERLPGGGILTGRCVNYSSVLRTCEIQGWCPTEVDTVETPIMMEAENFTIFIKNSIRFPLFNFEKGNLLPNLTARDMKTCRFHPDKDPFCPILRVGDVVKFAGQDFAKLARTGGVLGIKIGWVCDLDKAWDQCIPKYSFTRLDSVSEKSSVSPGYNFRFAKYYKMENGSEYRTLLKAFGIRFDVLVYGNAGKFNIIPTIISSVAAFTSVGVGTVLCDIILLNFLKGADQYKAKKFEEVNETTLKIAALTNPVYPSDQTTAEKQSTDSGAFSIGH
MEASUREMENT_DESCRIPTION: P2X3 receptor inhibition, ATP-evoked Fluo-3 fluorescence (FDSS 3000)
EXPERIMENTAL_PARAMETERS: C6BU-1 cell transfected with human P2X3 receptor gene
Kindly note that the scale is log10 and the underlying IC50 is in nM.

Observe how each entry below is paired with its result.
| MOL | log10 of IC50 |
| --- | --- |
| CC(C)Oc1ccc(Nc2nc(=O)n(CC(=O)NCCO)c(=O)n2Cc2ccc(Cl)cc2)cc1F | 1.26 |
| COC(=O)C[C@@H](C)n1c(=O)[nH]/c(=N\c2ccc(OC(C)C)c(C)c2)n(Cc2ccc(Cl)cc2)c1=O | 1.28 |
| CSc1cccc(Nc2nc(=O)n(C(C)C)c(=O)n2Cc2ccc(F)cc2)c1 | 2.98 |

Consider the following items and state reported log10 of IC50 for each.
1. Cc1ccc(Cn2c(Nc3ccc(Oc4ccccc4)cc3)nc(=O)n(C(C)C)c2=O)cc1
2. Cc1cc(/N=c2\[nH]c(=O)n(C[C@H](C)C(=O)O)c(=O)n2Cc2ccc(Cl)cc2)ccc1OC(C)C
3. CC(C)n1c(=O)nc(Nc2ccc(C(=O)Nc3ccccc3)cc2)n(Cc2ccc(Cl)cc2)c1=O
4. CCOc1ccc(/N=c2\[nH]c(=O)n(C[C@@H](C)C(=O)O)c(=O)n2Cc2ccc(Cl)cc2)cc1Cl
5. O=c1nc(Nc2ccc(-c3ccon3)cc2)n(Cc2ccc(Cl)cc2)c(=O)n1CCO

Response:
1: 2.68; 2: 1.20; 3: 2.94; 4: 1.43; 5: 2.97
